TARGET_UNDER_TEST: CYP3A4 (Homo sapiens (Human))
Sequence (P08684 whole entry): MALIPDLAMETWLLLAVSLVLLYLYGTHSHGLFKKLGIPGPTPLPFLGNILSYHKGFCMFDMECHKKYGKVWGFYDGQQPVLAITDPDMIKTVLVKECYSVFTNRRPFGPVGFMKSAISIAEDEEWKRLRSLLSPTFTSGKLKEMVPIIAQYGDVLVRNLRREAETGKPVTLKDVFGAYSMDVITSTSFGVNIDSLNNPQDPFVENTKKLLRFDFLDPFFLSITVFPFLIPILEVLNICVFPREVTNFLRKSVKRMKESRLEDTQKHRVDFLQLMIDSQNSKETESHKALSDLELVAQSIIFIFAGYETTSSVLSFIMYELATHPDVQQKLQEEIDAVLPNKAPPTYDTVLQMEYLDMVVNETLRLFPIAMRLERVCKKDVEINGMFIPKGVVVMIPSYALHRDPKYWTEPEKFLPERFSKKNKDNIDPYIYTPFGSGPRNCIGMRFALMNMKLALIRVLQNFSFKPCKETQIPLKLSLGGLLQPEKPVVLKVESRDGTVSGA
MEASUREMENT_DESCRIPTION: CYP450 inhibition in human liver microsomes: CYP3A4;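 further: incubation at 37 °C started by adding 1 mM NADPH, with formation of the probe metabolite measured via LC-MS/MS or fluorescent detection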
CONDITION: read-out: CYP3A4 IC50 Testosterone; probe substrate testosterone
QUANTITY: pIC50
The quantity pIC50 is defined as the negative base-10 logarithm of the molar concentration.

MOLECULE	ENDPOINT_RESULT
COCCOCCOCCOC(=O)N[C@@H](C(=O)NC(Cc1ccccc1)[C@@H](O)CN(Cc1ccc(-c2ccccn2)cc1)NC(=O)[C@H](NC(=O)OCCOCCOCCOC)C(C)(C)C)C(C)(C)C (stereo partly shown)	4.63

Recorded result, COCCOCCOCCOCCOCCOCCOCCNc1ccc(S(=O)(=O)N(CC(C)C)CC(O)[C@H](Cc2ccccc2)NC(=O)O[C@H]2CO[C@H]3OCC[C@H]32)cc1 (stereo partly shown) , pIC50: 4.89

Recorded result, COCCOCCOCCNc1ccc(S(=O)(=O)N(CC(C)C)CC(O)[C@H](Cc2ccccc2)NC(=O)O[C@H]2CO[C@H]3OCC[C@H]32)cc1 (stereo partly shown) , pIC50: 5.51

Recorded result, CCCC1(CCc2ccccc2)CC(O)=C(C(CC)c2cccc(N(CCOCCOCCOCCOCCOC)S(=O)(=O)c3ccc(C(F)(F)F)cn3)c2)C(=O)O1 (stereo not shown) [mPEG5-amide-Tipranavir] , pIC50: 5.55
